# Test system: THRa:RXRa (NR concentration 90 nM, RXRa partner concentration 90 nM)
# Test Description: PBM binding z-score (relative to random genomic background probes); higher = stronger binding; sequences stand for … in GC…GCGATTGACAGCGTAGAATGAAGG
Readout Type: PBM binding z-score
One number for each entry.

Please review the following examples before continuing.
| Sequence Text | Test Value |
| --- | --- |
| AGTCAAATTTCACTAGGTAACGTAAGATTCAGCT | 0.638 |
| CGACCTAGGTCAAAGGACAGTGAAAGGCGACGTA | 2.86 |
| TCTAGTTGGTCATGGAGGTCACACACGACGGGTA | 3.61 |

Reported PBM binding z-score ( `GCATACGGGTCAAAGGTTATAGCATGAATAGAAT` ) = 3.81

====

# System: RARg homodimer (NR concentration 270 nM)
# Test Description: PBM binding z-score (relative to random genomic background probes); higher = stronger binding; sequences stand for … in GC…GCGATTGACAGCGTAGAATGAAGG
Field: class. Source value: PBM binding z-score. Ranges: low end = under 3, middle = from 3 up to 5, high end = 5 and over

Below are worked cases with known answers.
| Sequence Text | Assigned Class |
| --- | --- |
| CCTACTGGGCCATTCAGAGGTTATTGATCATATG | low end |
| CCGACTGGGGCAACGGTTACCATACTCAGTACGA | low end |
| CGAAGTAGGTCAAAGGACAGTGAAAGGCGACGTA | middle |
| GCTCGGGGGACAAGGTCAGAGCTTTGTCCGTAGA | middle |
| CTAAGTAGGTTAAGGGGGTCATTCAGTTTGAAAG | middle |

Which class holds `GTACCAAGGTGAATAGGTCGTTGATGAGTAGGCG` ?
low end

Which class holds `TAGCCAAGGTCATTCAGGGGCCAGTATAGAAAGC` ?
high end

Which class holds `ATATGTAGGTTAGCTGGGGTCATTCCGACTAGGC` ?
low end

Which class holds `TTACAAAGGTGAGCTGAGGTCGTTGATCCAACTC` ?
low end

Which class holds `CAAACTAGGTCACAGAGGACAAAGTCCGTGCGTA` ?
high end

Which class holds `CTAACTAGGTCAAAGGACAGTGAAAGGCGACGTA` ?
middle

Which class holds `CTATGAAGGTTAAGGGGGTCATTCAGTTTGAAAG` ?
middle

Which class holds `CTATGTAGGTTAAGGGGGTCATTCTGTTTGAAAG` ?
middle

====

# System: VDR:RXRa (NR concentration 270 nM, RXRa partner concentration 90 nM)
# Test Description: PBM binding z-score (relative to random genomic background probes); higher = stronger binding; sequences stand for … in GC…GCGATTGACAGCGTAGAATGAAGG
Field: class. Source value: PBM binding z-score. Ranges: group A (below 1), group B (1 to below 4), group C (4 or more)

Below are worked cases with known answers.
| Sequence Text | System Name | Assigned Class |
| --- | --- | --- |
| ACTTACGGGTCAAGGAGGTTATAGCACGCGTATA | VDR:RXRa (NR concentration 270 nM, RXRa partner concentration 90 nM) | group C |
| CCTAGTTGGTCAGGTGGTCACACACCGGATATGA | VDR:RXRa (NR concentration 270 nM, RXRa partner concentration 90 nM) | group A |

Which class holds `CCTACGGGGCCAAAGGTCATTGATTCCAATGCTC` ?
group C

Which class holds `ATATGTAGGTTCCATCCGGGTCATTCAGGCTATG` ?
group B

Which class holds `CCGAGTAGGCTACGAGGGGGCATTCAGTGCGAAT` ?
group B

Which class holds `CCGAGTAGGTTACGAGGGGGCATTGAGTGCGAAT` ?
group C

Which class holds `AGTCAAAGTTCAGCACGAGGTAACGTAAAGCACG` ?
group B

Which class holds `ATATGCAGGTTAGGGTCATTCAGAAAGTAGGGAA` ?
group C

Which class holds `CCGAGTAGGTTACGAGGGGGCACTCAGTGCGAAT` ?
group C

Which class holds `CGCACTAGGTCAAAGGACAGTGAAAGGCGACGTA` ?
group B

Which class holds `GATACAGGGGCAAGGCCAGAGTACGCGTATTGAT` ?
group A

Which class holds `ATCGAACGGTCGAGGTGAGTATAGAGAAAGGGAA` ?
group A

Which class holds `CTCGAAAGGTCGTGCTTAGGTGAGTATACCAAAC` ?
group B

Which class holds `CGAACTAAGTCATCCAGGACAGTGAATACATTGA` ?
group A

Which class holds `CGAACTAGGTAAAGGACAGTGAATCTCCGCACGC` ?
group A

Which class holds `TTACCAAGGTTAAAGGTCGTTGATGCACGCCTTG` ?
group C

Which class holds `CCGAGTAGGTTACGAGGGGGTATTCAGTGCGAAT` ?
group B

Which class holds `CGTCGGAGGACAACAGGAGGTCAGAGCTGCCAGA` ?
group B

Which class holds `GCTAGTGGGTCAGTAAAAGGTCACACACCGGTCG` ?
group C

Which class holds `AGATGTAGGTTAGGGTCATTCAGAAAGTAGGGAA` ?
group C

Which class holds `CGAACTAGGTCATAGGACAGTGAAAGGCGACGTA` ?
group B
